B1: library; numbered along this chain (parent)
chain: MAAAGGARLLRAASAVLGGPAGRWLHHAGSRAGSSGLLRNRGPGGSAEASRSLSVSARARSSSEDKITVHFINRDGETLTTKGKVGDSLLDVVVENNLDIDGFGACEGTLACSTCHLIFEDHIYEKLDAITDEENDMLDLAYGLTDRSRLGCQICLTKSMDNMTVRVPETVADARQSIDVGKTS

Variants of: B1
experiment: scaled log2 fold change in cell abundance, elesclomol vs control (0 = silent mean, 1 = nonsense mean) (scaled log2 ratio); higher = higher viability under elesclomol (loss of FDX1 cuproptosis function);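 note: variant abundance is its share of total variant reads in each endpoint sample, from next-generation sequencing of the integrated ORF PCR-amplified out of genomic DNA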
condition description: with ABC1 FDX1 KO; elesclomol 5 nM; glucose 10 mM; 14 days
Classification field. Basis: scaled log2 fold change. Definitions: range A: < 0.02; range B: ≥ 0.02 and < 0.3; range C: ≥ 0.3

Request: Which of the defined bands does the recorded scaled log2 fold change of "R8Y" sit within?
Response: range C

Request: Which of the defined bands does the recorded scaled log2 fold change of "I178K" sit within?
Response: range C

Request: Which of the defined bands does the recorded scaled log2 fold change of "G104F" sit within?
Response: range C

Request: Which of the defined bands does the recorded scaled log2 fold change of "G42E" sit within?
Response: range A

Request: Which of the defined bands does the recorded scaled log2 fold change of "K182T" sit within?
Response: range B

Request: Which of the defined bands does the recorded scaled log2 fold change of "D99R" sit within?
Response: range A

Request: Which of the defined bands does the recorded scaled log2 fold change of "S113T" sit within?
Response: range B

Request: Which of the defined bands does the recorded scaled log2 fold change of "G29W" sit within?
Response: range C

Request: Which of the defined bands does the recorded scaled log2 fold change of "A13F" sit within?
Response: range B

Request: Which of the defined bands does the recorded scaled log2 fold change of "L127D" sit within?
Response: range C

Request: Which of the defined bands does the recorded scaled log2 fold change of "E169A" sit within?
Response: range B

Request: Which of the defined bands does the recorded scaled log2 fold change of "V69I" sit within?
Response: range A

Request: Which of the defined bands does the recorded scaled log2 fold change of "G104E" sit within?
Response: range C

Request: Which of the defined bands does the recorded scaled log2 fold change of "G151I" sit within?
Response: range C

Request: Which of the defined bands does the recorded scaled log2 fold change of "A28H" sit within?
Response: range A

Request: Which of the defined bands does the recorded scaled log2 fold change of "A4S" sit within?
Response: range B

Request: Which of the defined bands does the recorded scaled log2 fold change of "V94S" sit within?
Response: range A

Request: Which of the defined bands does the recorded scaled log2 fold change of "D87M" sit within?
Response: range B

Request: Which of the defined bands does the recorded scaled log2 fold change of "A174M" sit within?
Response: range B

Request: Which of the defined bands does the recorded scaled log2 fold change of "L127Y" sit within?
Response: range B

Request: Which of the defined bands does the recorded scaled log2 fold change of "E64Y" sit within?
Response: range C

Request: Which of the defined bands does the recorded scaled log2 fold change of "T78K" sit within?
Response: range C

Request: Which of the defined bands does the recorded scaled log2 fold change of "L127T" sit within?
Response: range B

Request: Which of the defined bands does the recorded scaled log2 fold change of "A3S" sit within?
Response: range C

Request: Which of the defined bands does the recorded scaled log2 fold change of "C155Q" sit within?
Response: range C

Request: Which of the defined bands does the recorded scaled log2 fold change of "A15Y" sit within?
Response: range A

Request: Which of the defined bands does the recorded scaled log2 fold change of "R39D" sit within?
Response: range A

Request: Which of the defined bands does the recorded scaled log2 fold change of "A28N" sit within?
Response: range A

Request: Which of the defined bands does the recorded scaled log2 fold change of "I100R" sit within?
Response: range B

Request: Which of the defined bands does the recorded scaled log2 fold change of "V167A" sit within?
Response: range A

Request: Which of the defined bands does the recorded scaled log2 fold change of "D91K" sit within?
Response: range A

Request: Which of the defined bands does the recorded scaled log2 fold change of "N162Q" sit within?
Response: range B

Request: Which of the defined bands does the recorded scaled log2 fold change of "G18P" sit within?
Response: range B

Request: Which of the defined bands does the recorded scaled log2 fold change of "S177I" sit within?
Response: range A

Request: Which of the defined bands does the recorded scaled log2 fold change of "G86W" sit within?
Response: range B
